# Assay overview: activity coefficient (dimensionless); of the first substance listed, at infinite dilution; xn = mol fraction of the nth substance listed
# Condition parameters: 332.65 K; Liquid; Chromatography; x1 = 0
# cutoff 0.7 applies to activity coefficient; >= gives true (1), < gives false (0)

INSERT INTO measurements (compound, class_assignment) VALUES
  ('ClC(Cl)Cl [trichloromethane] + CCCC[N+](C)(CCCC)CCCC.O=S(=O)([N-]S(=O)(=O)C(F)(F)F)C(F)(F)F', 'true (1)'),
  ('CCCCCCCC [octane] + CCCC[N+](C)(CCCC)CCCC.O=S(=O)([N-]S(=O)(=O)C(F)(F)F)C(F)(F)F', 'true (1)'),
  ('Cc1ccccc1 [toluene] + CCCCCCCC[N+](CCCCCCCC)(CCCCCCCC)CCCCCCCC.O=S(=O)([N-]S(=O)(=O)C(F)(F)F)C(F)(F)F', 'false (0)'),
  ('CCCCCCCCCCCC [dodecane] + CCCCCCCCCC[N+](C)(C)C.O=S(=O)([N-]S(=O)(=O)C(F)(F)F)C(F)(F)F', 'true (1)'),
  ('c1ccccc1 [benzene] + CCCCCCCCCC[N+](C)(C)C.O=S(=O)([N-]S(=O)(=O)C(F)(F)F)C(F)(F)F', 'true (1)'),
  ('OCC(F)(F)F [2,2,2-trifluoroethanol] + CCCC[N+](C)(CCCC)CCCC.O=S(=O)([N-]S(=O)(=O)C(F)(F)F)C(F)(F)F', 'false (0)'),
  ('CCCCCCCCCCCC [dodecane] + CCCCCCCC[N+](C)(C)C.O=S(=O)([N-]S(=O)(=O)C(F)(F)F)C(F)(F)F', 'true (1)'),
  ('CC1CCCC1 [methylcyclopentane] + CCCC[N+](C)(CCCC)CCCC.O=S(=O)([N-]S(=O)(=O)C(F)(F)F)C(F)(F)F', 'true (1)'),
  ('CC(C)OC(C)C [diisopropyl ether] + CCCCCCCC[N+](C)(C)C.O=S(=O)([N-]S(=O)(=O)C(F)(F)F)C(F)(F)F', 'true (1)'),
  ('CC1CCCCC1 [methylcyclohexane] + CCCCCCCC[N+](CCCCCCCC)(CCCCCCCC)CCCCCCCC.O=S(=O)([N-]S(=O)(=O)C(F)(F)F)C(F)(F)F', 'true (1)'),
  ('CCC(=O)CC [pentan-3-one] + CCCCCCCCCC[N+](C)(C)C.O=S(=O)([N-]S(=O)(=O)C(F)(F)F)C(F)(F)F', 'false (0)'),
  ('C#CCCCC [1-hexyne] + CCCCCCCCCC[N+](C)(C)C.O=S(=O)([N-]S(=O)(=O)C(F)(F)F)C(F)(F)F', 'true (1)'),
  ('CCc1ccccc1 [ethylbenzene] + CCCCCCCC[N+](CCCCCCCC)(CCCCCCCC)CCCCCCCC.O=S(=O)([N-]S(=O)(=O)C(F)(F)F)C(F)(F)F', 'false (0)'),
  ('CC(C)OC(C)C [diisopropyl ether] + CCCCCCCCCC[N+](C)(C)C.O=S(=O)([N-]S(=O)(=O)C(F)(F)F)C(F)(F)F', 'true (1)'),
  ('CCOCC [diethyl ether] + CCCC[N+](C)(CCCC)CCCC.O=S(=O)([N-]S(=O)(=O)C(F)(F)F)C(F)(F)F', 'true (1)'),
  ('CCC(C)=O [butanone] + CCCCCCCC[N+](CCCCCCCC)(CCCCCCCC)CCCCCCCC.O=S(=O)([N-]S(=O)(=O)C(F)(F)F)C(F)(F)F', 'false (0)'),
  ('CCO [ethanol] + CCCCCCCC[N+](CCCCCCCC)(CCCCCCCC)CCCCCCCC.O=S(=O)([N-]S(=O)(=O)C(F)(F)F)C(F)(F)F', 'true (1)'),
  ('C1CCCCC1 [cyclohexane] + CCCCCCCCCC[N+](C)(C)C.O=S(=O)([N-]S(=O)(=O)C(F)(F)F)C(F)(F)F', 'true (1)'),
  ('CCCCO [butan-1-ol] + CCCC[N+](C)(CCCC)CCCC.O=S(=O)([N-]S(=O)(=O)C(F)(F)F)C(F)(F)F', 'true (1)'),
  ('CC(C)CO [2-methyl-1-propanol] + CCCC[N+](C)(CCCC)CCCC.O=S(=O)([N-]S(=O)(=O)C(F)(F)F)C(F)(F)F', 'true (1)'),
  ('CCCCCCCCC [nonane] + CCCC[N+](C)(CCCC)CCCC.O=S(=O)([N-]S(=O)(=O)C(F)(F)F)C(F)(F)F', 'true (1)'),
  ('C1COCCO1 [1,4-dioxane] + CCCCCCCCCC[N+](C)(C)C.O=S(=O)([N-]S(=O)(=O)C(F)(F)F)C(F)(F)F', 'false (0)'),
  ('C#CCCCCC [1-heptyne] + CCCCCCCC[N+](CCCCCCCC)(CCCCCCCC)CCCCCCCC.O=S(=O)([N-]S(=O)(=O)C(F)(F)F)C(F)(F)F', 'true (1)'),
  ('CCCC(C)=O [pentan-2-one] + CCCCCCCC[N+](C)(C)C.O=S(=O)([N-]S(=O)(=O)C(F)(F)F)C(F)(F)F', 'false (0)'),
  ('CCC(C)=O [butanone] + CCCCCCCCCC[N+](C)(C)C.O=S(=O)([N-]S(=O)(=O)C(F)(F)F)C(F)(F)F', 'false (0)'),
  ('CC(C)O [propan-2-ol] + CCCC[N+](C)(CCCC)CCCC.O=S(=O)([N-]S(=O)(=O)C(F)(F)F)C(F)(F)F', 'true (1)'),
  ('CCC[N+](=O)[O-] [1-nitropropane] + CCCCCCCCCC[N+](C)(C)C.O=S(=O)([N-]S(=O)(=O)C(F)(F)F)C(F)(F)F', 'false (0)');

====

# Assay overview: activity coefficient (dimensionless); of the first substance listed, at infinite dilution; xn = mol fraction of the nth substance listed
# Condition parameters: 322.85 K; Liquid; Chromatography; x1 = 0
Each entry below carries its recorded activity coefficient.
Quantity measured: activity coefficient

INSERT INTO results (compound, quantity_measured, readout_value) VALUES
  ('CCOCC [diethyl ether] + CCCCCCCC[N+](CCCCCCCC)(CCCCCCCC)CCCCCCCC.O=S(=O)([N-]S(=O)(=O)C(F)(F)F)C(F)(F)F', 'activity coefficient', 0.71),
  ('CC(C)O [propan-2-ol] + CCCCCCCCCC[N+](C)(C)C.O=S(=O)([N-]S(=O)(=O)C(F)(F)F)C(F)(F)F', 'activity coefficient', 1.38),
  ('C1COCCO1 [1,4-dioxane] + CCCC[N+](C)(CCCC)CCCC.O=S(=O)([N-]S(=O)(=O)C(F)(F)F)C(F)(F)F', 'activity coefficient', 0.61),
  ('CC(C)CC(C)(C)C [2,2,4-trimethylpentane] + CCCC[N+](C)(CCCC)CCCC.O=S(=O)([N-]S(=O)(=O)C(F)(F)F)C(F)(F)F', 'activity coefficient', 8.87),
  ('ClC(Cl)Cl [trichloromethane] + CCCC[N+](C)(CCCC)CCCC.O=S(=O)([N-]S(=O)(=O)C(F)(F)F)C(F)(F)F', 'activity coefficient', 0.84),
  ('CCC[N+](=O)[O-] [1-nitropropane] + CCCCCCCCCC[N+](C)(C)C.O=S(=O)([N-]S(=O)(=O)C(F)(F)F)C(F)(F)F', 'activity coefficient', 0.59),
  ('C=CCCCC [hex-1-ene] + CCCCCCCCCC[N+](C)(C)C.O=S(=O)([N-]S(=O)(=O)C(F)(F)F)C(F)(F)F', 'activity coefficient', 2.7),
  ('CC#N [acetonitrile] + CCCC[N+](C)(CCCC)CCCC.O=S(=O)([N-]S(=O)(=O)C(F)(F)F)C(F)(F)F', 'activity coefficient', 0.49),
  ('CCc1ccccc1 [ethylbenzene] + CCCCCCCC[N+](CCCCCCCC)(CCCCCCCC)CCCCCCCC.O=S(=O)([N-]S(=O)(=O)C(F)(F)F)C(F)(F)F', 'activity coefficient', 0.59),
  ('CCc1ccccc1 [ethylbenzene] + CCCCCCCC[N+](C)(C)C.O=S(=O)([N-]S(=O)(=O)C(F)(F)F)C(F)(F)F', 'activity coefficient', 1.39),
  ('CCCCCCCC [octane] + CCCCCCCC[N+](C)(C)C.O=S(=O)([N-]S(=O)(=O)C(F)(F)F)C(F)(F)F', 'activity coefficient', 11),
  ('CCCO [propan-1-ol] + CCCCCCCC[N+](CCCCCCCC)(CCCCCCCC)CCCCCCCC.O=S(=O)([N-]S(=O)(=O)C(F)(F)F)C(F)(F)F', 'activity coefficient', 1.22),
  ('CCOCC [diethyl ether] + CCCCCCCC[N+](C)(C)C.O=S(=O)([N-]S(=O)(=O)C(F)(F)F)C(F)(F)F', 'activity coefficient', 1.6);
